The origin of these recorded values is the supplement of paper PMC10567573.

B1: PWWP2B (parent)
chain: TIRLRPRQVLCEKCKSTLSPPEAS

variants of: B1; assay: protein stability index of a GFP-peptide fusion (GPS, HEK-293T) (PSI 1-6); higher = more stable; conditions: c terminus: a fixed tail appended;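 further: lentivirally expressed fusions sorted by FACS into six bins by GFP to DsRed ratio, PSI derived from sequencing read proportions per bin multiplied by bin number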
quantity_measured: protein stability index

INSERT INTO measurements (mutation_notation, reported_result) VALUES
  ('S16G', 3.07),
  ('R7K', 2.99),
  ('T1G', 3.09);
